List of selective drug sensitivity score values.
- Tested on: NALL-1;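 note: ALL cell lines in 384-well plates, five doses spanning 10,000-fold, each plate scaled between vehicle and 100 µmol/L benzalkonium chloride controls, sDSS an adapted area-under-curve metric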
- PROTOCOL: selective drug sensitivity score (sDSS, relative to normal bone marrow) (sDSS (score)); higher = more potent and effective on the cell line relative to normal bone marrow cells
- CONDITION_INFO: 72 h

MOLECULE: CC(C)[C@H]1C(=O)N[C@@H](CCCNC(=N)N)C(=O)NCC(=O)N[C@@H](CC(=O)O)C(=O)N[C@H](Cc2ccccc2)C(=O)N1C [Cilengitide] (top concentration 10000 nM)
selective drug sensitivity score: 11.8
--
MOLECULE: CC(=O)O[C@]1(C(C)=O)CC[C@H]2[C@@H]3C=C(C)C4=CC(=O)CC[C@]4(C)[C@H]3CC[C@@]21C [Megestrol_acetate] (top concentration 10000 nM)
selective drug sensitivity score: 6.52
--
MOLECULE: CC[C@@]1(O)C(=O)OCc2c1cc1n(c2=O)Cc2cc3c(CN(C)C)c(O)ccc3nc2-1 [Topotecan] (top concentration 10000 nM)
selective drug sensitivity score: 20.4
--
MOLECULE: C=CC(=O)Nc1cccc(Oc2nc(Nc3ccc(N4CCN(C)CC4)cc3)nc3ccsc23)c1 [Olmutinib] (top concentration 1000 nM)
selective drug sensitivity score: 5.88
--
MOLECULE: COc1cc(CCc2cc(NC(=O)c3ccc(N4CC(C)NC(C)C4)cc3)n[nH]2)cc(OC)c1 (stereo unspecified) [AZD4547] (top concentration 1000 nM)
selective drug sensitivity score: -0.14
--
MOLECULE: Cc1[nH]nc(C(F)(F)F)c1Cc1sc2c(c1C(=O)N1C[C@](C)(O)CO1)c(=O)n(C)c(=O)n2C(C)C [AZD3965] (top concentration 1000 nM)
selective drug sensitivity score: 3.8

From: the supplement of paper PMC8967900
